Target: cannabinoid CB2 receptor (Homo sapiens, UniProt P34972)
Sequence (P34972 whole entry): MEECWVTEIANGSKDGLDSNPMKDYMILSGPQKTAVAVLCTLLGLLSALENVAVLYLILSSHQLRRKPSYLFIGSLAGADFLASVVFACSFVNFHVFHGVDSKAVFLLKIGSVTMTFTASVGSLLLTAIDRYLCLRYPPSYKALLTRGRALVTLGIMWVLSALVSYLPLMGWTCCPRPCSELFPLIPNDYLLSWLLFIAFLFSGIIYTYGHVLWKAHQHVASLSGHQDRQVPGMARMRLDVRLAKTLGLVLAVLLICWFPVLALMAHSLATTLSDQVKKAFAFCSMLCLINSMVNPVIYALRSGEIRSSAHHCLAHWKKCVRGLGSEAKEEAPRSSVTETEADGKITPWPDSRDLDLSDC
Experiment: [35S]GTPγS binding stimulation
Format: biochemical
READOUT_LABEL: EC50
Give the number first and the unit second.

COC(=O)c1ccccc1NC(=O)CN(c1ccccc1OC)S(=O)(=O)c1ccc(C)cc1 = 13 nM

Please find the next molecule below.
Record CCC(C(=O)Nc1sc2c(c1C(N)=O)CCCCCC2)c1ccccc1 (centres unmarked) : what is its EC50 with cannabinoid CB2 receptor (Homo sapiens, UniProt P34972)?
31 nM
